molecular target: BChE (Equus caballus, UniProt P81908); details: 10 μM
Sequence (P81908 whole entry): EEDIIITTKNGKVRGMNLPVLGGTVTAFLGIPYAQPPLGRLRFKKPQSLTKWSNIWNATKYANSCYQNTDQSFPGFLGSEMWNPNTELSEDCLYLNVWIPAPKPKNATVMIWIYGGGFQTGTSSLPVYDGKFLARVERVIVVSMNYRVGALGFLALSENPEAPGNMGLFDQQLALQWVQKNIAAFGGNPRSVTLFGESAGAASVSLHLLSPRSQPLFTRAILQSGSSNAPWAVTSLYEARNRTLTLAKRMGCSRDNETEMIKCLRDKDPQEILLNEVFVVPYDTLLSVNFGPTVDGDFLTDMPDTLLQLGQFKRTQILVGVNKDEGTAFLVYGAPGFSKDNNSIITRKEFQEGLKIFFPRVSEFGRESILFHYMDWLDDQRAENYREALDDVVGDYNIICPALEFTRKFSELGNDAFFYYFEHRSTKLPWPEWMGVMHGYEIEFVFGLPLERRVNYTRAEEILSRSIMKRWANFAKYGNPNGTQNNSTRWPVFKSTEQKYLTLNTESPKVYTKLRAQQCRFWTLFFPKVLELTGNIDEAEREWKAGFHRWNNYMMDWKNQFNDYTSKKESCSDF
quantity: residual activity (%) BChE

In [3]: df
Out[3]:
                                smiles_text  uom  endpoint_value
0  O=C(/C=C/C=C/c1ccc([N+](=O)[O-])cc1)c1ccc(F)cc1    %            97.8
1    O=C(/C=C/C=C/c1ccc(Br)cc1)c1ccc(Br)cc1    %            99.2
2     O=C(/C=C/C=C/c1ccc(Br)cc1)c1ccc(F)cc1    %            89.2
3     O=C(/C=C/C=C/c1ccc(F)cc1)c1ccc(Br)cc1    %            87.4
4        O=C(/C=C/C=C/c1ccccc1)c1ccc(Cl)cc1    %            94.1
5        COc1ccc(/C=C/C=C/C(=O)c2ccccc2)cc1    %            89.0
6        O=C(/C=C/C=C/c1ccccc1)c1ccc(Br)cc1    %            97.5

###

molecular target: UniProt:P21397; test: biochemical; details: read-out: residual activity (%) MAO-A
Sequence (P21397 whole entry): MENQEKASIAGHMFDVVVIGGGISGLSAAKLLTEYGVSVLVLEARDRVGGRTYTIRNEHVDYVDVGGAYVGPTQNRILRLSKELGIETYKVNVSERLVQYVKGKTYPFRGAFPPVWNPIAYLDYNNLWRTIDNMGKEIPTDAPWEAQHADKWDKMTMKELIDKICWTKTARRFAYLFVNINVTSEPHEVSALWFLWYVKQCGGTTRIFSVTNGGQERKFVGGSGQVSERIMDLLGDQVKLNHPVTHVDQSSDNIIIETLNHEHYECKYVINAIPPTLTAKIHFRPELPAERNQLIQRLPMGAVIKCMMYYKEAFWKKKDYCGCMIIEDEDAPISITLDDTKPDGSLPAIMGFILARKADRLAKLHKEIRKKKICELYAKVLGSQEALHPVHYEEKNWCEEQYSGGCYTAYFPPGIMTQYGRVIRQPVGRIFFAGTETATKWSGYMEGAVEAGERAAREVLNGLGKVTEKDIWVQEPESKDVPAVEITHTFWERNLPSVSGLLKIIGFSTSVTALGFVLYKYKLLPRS
quantity: remaining activity at 10 µM

In [3]: df
Out[3]:
                              smiles_text  endpoint_value
0  O=C(/C=C/C=C/c1ccc(Br)cc1)c1ccc(Br)cc1           85.4%
1  COc1ccc(/C=C/C=C/C(=O)c2ccc(Cl)cc2)cc1           73.6%
2   COc1ccc(/C=C/C=C/C(=O)c2ccc(F)cc2)cc1           40.9%
